# Test system: rats
# method description: Neurotoxicity: neural deficits after intracisternal injections in rats
# Type: in vivo
# test conditions: 40 mg I, average of 10 rats, 0 = normal
Deficit Scores: recorded values
Write no unit; give the number alone.

Examples with answers:
1. CC(O)C(=O)Nc1c(I)c(C(=O)NC(CO)C(O)CO)c(I)c(C(=O)NC(CO)C(O)CO)c1I (racemic) [VIIIc] : 0
2. CC(=O)Nc1c(I)c(C(=O)N[C@H]2C(O)O[C@H](CO)[C@@H](O)[C@@H]2O)c(I)c(N(C)C(C)=O)c1I (stereo partly shown) [Metrizamide, reference compound] : 25.3
3. CN(C(=O)CC(=O)N(C)c1c(I)c(C(=O)NC(CO)C(O)CO)c(I)c(C(=O)NC(CO)C(O)CO)c1I)c1c(I)c(C(=O)NC(CO)C(O)CO)c(I)c(C(=O)NC(CO)C(O)CO)c1I (stereo not shown) [XVIII] : 0

Turning now to a further record.
Which Deficit Scores is reported for this compound? C[C@H](O)C(=O)Nc1c(I)c(C(=O)NC(CO)CO)c(I)c(C(=O)NC(CO)CO)c1I [Iopamidol, reference compound]
1.75

* * *

# Test system: rats
# method description: Neurotoxicity: neural deficits after intracisternal injections in rats
# Assay type: in vivo
# test conditions: 60 mg I, average of 10 rats, 0 = normal
Deficit Scores: recorded values
Write no unit; give the number alone.

Examples with answers:
1) CC(=O)Nc1c(I)c(C(=O)N[C@H]2C(O)O[C@H](CO)[C@@H](O)[C@@H]2O)c(I)c(N(C)C(C)=O)c1I (stereo partly shown) [Metrizamide, reference compound] : 84.2
2) CC(O)C(=O)Nc1c(I)c(C(=O)NC(CO)C(O)CO)c(I)c(C(=O)NC(CO)C(O)CO)c1I (racemic) : 3.0
3) C[C@H](O)C(=O)Nc1c(I)c(C(=O)NC(CO)CO)c(I)c(C(=O)NC(CO)CO)c1I [Iopamidol, reference compound] : 22.0

Turning now to a further record.
Which Deficit Scores is reported for this molecule? CN(C(=O)CC(=O)N(C)c1c(I)c(C(=O)NC(CO)C(O)CO)c(I)c(C(=O)NC(CO)C(O)CO)c1I)c1c(I)c(C(=O)NC(CO)C(O)CO)c(I)c(C(=O)NC(CO)C(O)CO)c1I (stereo not shown)
0
